# assayed target: hNaV1.7 (Homo sapiens)
# Construct: expressed in transfected cells; host or cells: HEK293
# test name: QPatch NaV1.7 assay (whole-cell patch clamp, QPatch16x)
# Assay type: cell-based
# condition description: holding voltage V1/2 SSI (half of channels inactivated), HEK293-hNaV1.7 cells, read-out: QP Nav1.7 SSI vhalf pIC50 (converted)
Where a name gives a salt, the structure may show the parent alone.
parameter measured: IC50 (µM)

Worked examples, 3 compounds total:
CN1CC[C@@]2(CC[C@H](c3cc(-c4cccc5[nH]ncc45)ccn3)N2)C1=O [Example 187, hydrochloride]	200
CCCOc1ccc(F)c(-c2cc(C)nc([C@@H]3CC[C@]4(CCN(C)C4=O)N3)c2)c1 [Example 201, hydrochloride]	0.126
CN1CC[C@@]2(CC[C@H](c3cc(-c4ccc(F)cc4)ccn3)N2)C1=O [Example 66, hydrochloride]	10

(1) CCN1[C@H](c2cc(-c3ccc(C(F)(F)F)cc3)ccn2)CC[C@]12CCCNC2=O [Example 233, hydrochloride]
(2) CN1CC[C@@]2(CC[C@H](c3cc(-c4ccc(C(F)(F)F)cc4)c(F)cn3)N2)C1=O [Example 58, hydrochloride]
(3) CCOc1ccc(F)c(-c2ccnc([C@@H]3CC[C@@]4(CCN(C)C4=O)N3)c2C)c1 [Example 214, hydrochloride]
(4) O=C1NCCC[C@]12CC[C@H](c1cc(-c3ccc(C(F)(F)F)cc3)ccn1)N2 [Example 50, hydrochloride]
(5) COc1cc(C(F)(F)F)ccc1-c1cc([C@@H]2CC[C@@]3(CCN(C)C3=O)N2)ncc1C [Example 132, hydrochloride]
Exercise: # rank_down: sort by IC50, max first Output spec: a listing of the labels in the requested order.
Key: 5, 1, 3, 2, 4
(5: 39.8 µM, 1: 12.6 µM, 3: 3.98 µM, 2: 1.26 µM, 4: 0.251 µM)

(1) Cc1cc(-c2ccc(C(F)(F)F)cc2)cc([C@@H]2CC[C@]3(CCNC3=O)N2)n1 [Example 95, hydrochloride]
(2) CCOc1cc(-c2cc(C)nc([C@H]3CC[C@@]4(CCN(C)C4=O)N3)c2)ccc1F [Example 125, hydrochloride]
Exercise: // pick min by IC50: 1 , 2 Choose, then provide that item's label.
Key: 1
(1: 12.6 µM, 2: 25.1 µM)

* * *

# assayed target: hNaV1.7 (Homo sapiens, UniProt Q15858)
# Construct: expressed in transfected cells; host or cells: HEK293
# Sequence (Q15858 whole entry): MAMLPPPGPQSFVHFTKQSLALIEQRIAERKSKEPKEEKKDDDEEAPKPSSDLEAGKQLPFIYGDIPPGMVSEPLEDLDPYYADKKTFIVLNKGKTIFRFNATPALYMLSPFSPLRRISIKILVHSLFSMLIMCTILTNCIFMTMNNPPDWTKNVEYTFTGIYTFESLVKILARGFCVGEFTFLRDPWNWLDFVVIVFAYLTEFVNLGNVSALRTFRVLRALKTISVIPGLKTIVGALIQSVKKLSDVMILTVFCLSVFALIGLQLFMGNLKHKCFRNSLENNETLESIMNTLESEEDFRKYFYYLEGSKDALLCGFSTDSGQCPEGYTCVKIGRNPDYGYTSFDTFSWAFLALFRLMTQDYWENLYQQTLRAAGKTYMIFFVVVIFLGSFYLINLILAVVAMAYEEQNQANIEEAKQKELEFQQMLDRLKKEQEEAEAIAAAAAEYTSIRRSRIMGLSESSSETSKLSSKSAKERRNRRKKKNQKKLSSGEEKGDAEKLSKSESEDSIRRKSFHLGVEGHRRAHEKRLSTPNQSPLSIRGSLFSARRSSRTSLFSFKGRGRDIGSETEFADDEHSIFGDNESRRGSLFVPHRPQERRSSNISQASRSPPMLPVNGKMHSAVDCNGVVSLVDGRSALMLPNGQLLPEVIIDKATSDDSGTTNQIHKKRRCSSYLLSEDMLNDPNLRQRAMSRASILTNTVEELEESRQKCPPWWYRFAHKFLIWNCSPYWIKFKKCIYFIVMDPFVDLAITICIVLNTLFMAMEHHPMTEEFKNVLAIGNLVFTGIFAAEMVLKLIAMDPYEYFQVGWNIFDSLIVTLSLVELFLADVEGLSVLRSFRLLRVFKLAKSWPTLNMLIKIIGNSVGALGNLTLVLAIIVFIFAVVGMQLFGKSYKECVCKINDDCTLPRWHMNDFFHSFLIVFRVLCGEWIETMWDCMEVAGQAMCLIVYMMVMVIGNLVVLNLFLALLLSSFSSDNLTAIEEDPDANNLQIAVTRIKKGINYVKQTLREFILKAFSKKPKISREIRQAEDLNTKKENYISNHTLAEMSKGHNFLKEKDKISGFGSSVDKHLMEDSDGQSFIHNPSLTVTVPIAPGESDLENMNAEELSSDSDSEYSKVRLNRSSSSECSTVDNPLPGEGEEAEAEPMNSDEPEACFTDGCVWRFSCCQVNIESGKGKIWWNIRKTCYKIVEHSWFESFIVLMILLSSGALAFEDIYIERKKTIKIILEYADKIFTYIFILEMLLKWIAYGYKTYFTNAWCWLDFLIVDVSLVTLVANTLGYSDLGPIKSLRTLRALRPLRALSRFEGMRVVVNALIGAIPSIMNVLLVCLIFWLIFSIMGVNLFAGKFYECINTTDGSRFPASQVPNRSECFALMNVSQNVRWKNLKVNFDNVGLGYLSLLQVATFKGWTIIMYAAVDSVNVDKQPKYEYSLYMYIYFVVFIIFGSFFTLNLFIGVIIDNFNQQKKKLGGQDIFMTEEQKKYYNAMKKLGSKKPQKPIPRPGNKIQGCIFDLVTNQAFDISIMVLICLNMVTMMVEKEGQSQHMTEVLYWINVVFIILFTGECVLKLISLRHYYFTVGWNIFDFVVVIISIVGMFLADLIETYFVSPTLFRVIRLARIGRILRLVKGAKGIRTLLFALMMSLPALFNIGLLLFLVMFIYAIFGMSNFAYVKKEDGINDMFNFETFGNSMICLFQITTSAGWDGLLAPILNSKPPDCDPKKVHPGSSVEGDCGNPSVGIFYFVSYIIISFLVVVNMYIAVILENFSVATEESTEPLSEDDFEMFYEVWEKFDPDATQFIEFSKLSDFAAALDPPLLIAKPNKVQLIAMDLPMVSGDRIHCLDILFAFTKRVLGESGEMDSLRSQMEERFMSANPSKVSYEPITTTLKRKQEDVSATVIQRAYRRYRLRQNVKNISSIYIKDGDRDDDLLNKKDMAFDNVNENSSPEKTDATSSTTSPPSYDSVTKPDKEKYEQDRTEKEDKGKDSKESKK
# test name: QPatch NaV1.7 assay (whole-cell patch clamp, QPatch16x)
# Format: cell-based
# condition description: holding voltage V1/2 SSI (half of channels inactivated), HEK293-hNaV1.7 cells, read-out: QP Nav1.7 SSI vhalf pIC50 (converted)
Structures can show the parent of a compound that is named as a salt.
parameter measured: IC50 (µM)

CN1CC[C@@]2(CC[C@H](c3cc(-c4cccc(Cl)c4C#N)ccn3)N2)C1=O [Example 165, hydrochloride]	100
Cc1c(-c2ccc(C(F)(F)F)cc2)ccnc1[C@H]1CC[C@]2(CCN(C)C2=O)N1 [Example 14, hydrochloride]	10
CN1CCC[C@]2(CC[C@@H](c3cc(-c4ccc(F)cc4)ccn3)N2)C1=O [Example 73, hydrochloride]	20
CCOc1ccc(F)c(-c2cc([C@H]3CC[C@@]4(CCN(C)C4=O)N3)ncc2F)c1 [Example 223, hydrochloride]	25.1
Cc1cc(-c2cc(C(F)(F)F)ccc2C#N)cc([C@H]2CC[C@]3(CCN(C)C3=O)N2)n1 [Example 22, hydrochloride]	158

(a) Cc1cc(-c2cc(C(F)(F)F)ccc2C#N)cc([C@H]2CC[C@@]3(CCN(C)C3=O)N2)n1 [Example 23, hydrochloride]
(b) CCOc1ccc(F)c(-c2cc([C@@H]3CC[C@@]4(CCN(C)C4=O)N3)ncc2F)c1 [Example 224, hydrochloride]
Exercise: Between the entries labelled a and b , which has a larger IC50 value on record? Pick one; state its label.
Key: a
